test system: Mtb H37Rv; assay: microbe, parasite or virus in culture; type: cell-based, Mycobacterium tuberculosis; conditions: Mycobacterium tuberculosis, H37RV; Table 3
Could you please report measured MIC90 for the items listed next?
Give bare numbers, in µM.

Here's what some known entries look like.
O=C(Nc1ccc(N2CCSCC2)c(F)c1)c1ccc2no[n+]([O-])c2c1: 0.7
NNC(=O)c1ccncc1: 0.95

Please report MIC90 for every entry that follows.
1. CO[C@H]1/C=C/O[C@@]2(C)Oc3c(C)c(O)c4c(O)c(c(/C=N/N5CCN(C)CC5)c(O)c4c3C2=O)NC(=O)/C(C)=C\C=C\[C@H](C)[C@H](O)[C@@H](C)[C@@H](O)[C@@H](C)[C@H](OC(C)=O)[C@@H]1C
2. O=C(Nc1ccc(N2CCN(c3ccccn3)CC2)c(F)c1)c1ccc2no[n+]([O-])c2c1

[0.05, 0.09]

* * *

Could you please report measured CIM90 CF 162 for the items listed next?
system: Mtb CF 162 (MDR); type: cell-based, Mycobacterium tuberculosis; conditions: MDR clinical isolate; REMA, 7 days

CC(=O)NC[C@H]1CN(c2ccc(N3CCOCC3)c(F)c2)C(=O)O1: 0,41 ± 0,03 μM
NCC[C@H](O)C(=O)N[C@@H]1C[C@H](N)[C@@H](O[C@H]2O[C@H](CN)[C@@H](O)[C@H](O)[C@H]2O)[C@H](O)[C@H]1O[C@H]1O[C@H](CO)[C@@H](O)[C@H](N)[C@H]1O: > 42,69 μM
CO[C@H]1/C=C/O[C@@]2(C)Oc3c(C)c(O)c4c(O)c(c(/C=N/N5CCN(C)CC5)c(O)c4c3C2=O)NC(=O)/C(C)=C\C=C\[C@H](C)[C@H](O)[C@@H](C)[C@@H](O)[C@@H](C)[C@H](OC(C)=O)[C@@H]1C: > 30,38 μM
NNC(=O)c1ccncc1: > 182,30 μM

// next item, CIM90 CF 162 requested
Tell me reported CIM90 CF 162 for "O=C(Nc1ccc(N2CCN(c3ccccn3)CC2)c(F)c1)c1ccc2no[n+]([O-])c2c1" , tested with Mtb CF 162 (MDR).
2,24 ± 1,47 μM

* * *

Could you please report measured CIM90 M. bovis for the items listed next?
test system: M. bovis; assay type: cell-based, Mycobacterium bovis; settings: Sensitive; REMA, 7 days

Please report CIM90 M. bovis for every entry that follows.
1. NCC[C@H](O)C(=O)N[C@@H]1C[C@H](N)[C@@H](O[C@H]2O[C@H](CN)[C@@H](O)[C@H](O)[C@H]2O)[C@H](O)[C@H]1O[C@H]1O[C@H](CO)[C@@H](O)[C@H](N)[C@H]1O
2. CO[C@H]1/C=C/O[C@@]2(C)Oc3c(C)c(O)c4c(O)c(c(/C=N/N5CCN(C)CC5)c(O)c4c3C2=O)NC(=O)/C(C)=C\C=C\[C@H](C)[C@H](O)[C@@H](C)[C@@H](O)[C@@H](C)[C@H](OC(C)=O)[C@@H]1C
3. O=C(Nc1ccc(N2CCN(c3ccccn3)CC2)c(F)c1)c1ccc2no[n+]([O-])c2c1
4. CC(=O)NC[C@H]1CN(c2ccc(N3CCOCC3)c(F)c2)C(=O)O1

["1,5 ± 0,50 μM", "0,10 ± 0,01 μM", "27,03 ± 10,43 μM", "0,25 ± 0,1 μM"]
